test: Saline solubility at 1.00 mg/mL and 0.50 mg/mL (with pH by indicator paper); format: physicochemical; settings: saline or isotonic, thermodynamic from solid, 1.00 mg/mL as hydroxamate 1, shaken 1 hour, centrifuged, soluble = no precipitate formed, read-out: Soluble at 1.00 mg/mL of MGCD290 (Y/N)
Counter-ions that a name gives are not always drawn.
Exercise: for every item that follows, state its recorded solubility at 1 h.

Prompt: # input compound: NCCCCCCCC(=O)ONC(=O)Cc1ccc(CCCCc2ccccc2)cc1 [Compound 7, hydrochloride] ; wanted: its solubility at 1 h
Completion: < 1000 µg/mL

Prompt: # input compound: COCCOCC(=O)NCCCC[C@H](NC(=O)COCCOC)C(=O)NCCCC(=O)ONC(=O)Cc1ccc(CCCCc2ccccc2)cc1 ; wanted: its solubility at 1 h
Completion: > 1000 µg/mL

Prompt: # input compound: CC(=O)OCC(=O)NCCCC[C@H](NC(=O)COC(C)=O)C(=O)NCCC(=O)ONC(=O)Cc1ccc(CCCCc2ccccc2)cc1 ; wanted: its solubility at 1 h
Completion: < 1000 µg/mL

Prompt: # input compound: O=C(Cc1ccc(CCCCc2ccccc2)cc1)NOC(=O)CCC1CCCCC1 ; wanted: its solubility at 1 h
Completion: < 1000 µg/mL

Cited source: patent US20150203517A1
